target_or_system: SARS-CoV-2 spike receptor-binding domain (RBD) (SARS-CoV-2, UniProt P0DTC2 319-541)
assay_notes: BLI
The binders listed here are annotated with their Kd.
Numeric answer only, unit nM assumed.

Reference set (3 entries):
[
  {
    "binder": "nanobody NM1227 (VHH) VHH: EVQLVESGGGLVQPGGSLTLSCETSGRHFDIDDMGWYRQAPGKQRELVACITTESSTTYADAVKGRFTISRDNPDNTVYLQMTNLKPEDTAVYYCNAEMHPRSLDYALGNRDYWGQGAPVTVSS",
    "Kd / nM": 3.72
  },
  {
    "binder": "nanobody NM1229 (VHH) VHH: EVQLQESGGGLVQPGESLRLSCAASGRTHDWYTMGWFRQAPGKEREFVARINWSSGMTYYADSVKGRFTISRDNPKNTVYLQMNSLTPDDTAVYYCNVHPFTSPDYWGQGTRVTVSS",
    "Kd / nM": 53.2
  },
  {
    "binder": "nanobody NM1225 (VHH) VHH: QVQLVESGGGLVQPGGSLRLSCAASGNILRVHDMGWYRQAPGKQREYVAMITHGGITNYIDSVKGRFTISRDNAKNTVYLQMNSLKPEDTAVYYCHAVLSSALNGVTETSSNWGQGTQVTVSS",
    "Kd / nM": 53700
  }
]

Query string: Hello, please tell me recorded Kd for this one: nanobody NM1221 (VHH) VHH: DVQLVESGGGLVQPGGSLTLSCVGSGFLFSGYAMNWYRQAPGKALELVAGISNAGDITHYEEAMKGRVAISRVNDKNTVYLQMDDLKPEDTAVYRCHAPGVRVASGERNDVWGQGTQVTVSS
Result string: 22.7

Query string: Return Kd (reported value) for this binder: nanobody NM1222 (VHH) VHH: EVQLVESGGGLVRPGGSLRLSCVGSGFTFSGYAINWYRQAPGKALELVAGISNAGDLTHYEEAMKGRVAISRANDKNTVYLQMDDLKPEDTAVYRCHAPGVRVGTGERNDVWGQGAQVTVSS
Result string: 18
